Tested on: HL-60(TB)
Experiment: cells
Type: cell-based
Conditions: Homo sapiens, HL-60, read-out: percent growth inhibition
Decide by inhibition at 10 µM: equal to or exceeding 70% means MET, less means NOT MET.

INSERT INTO measurements (molecule, assigned_label) VALUES
  ('CC(=O)Nc1ccc(/C=C/C(=O)c2cccc(NCc3ccc(NC(C)=O)cc3)c2)cc1', 'MET'),
  ('CC(=O)Nc1ccc(CNc2cccc(C(=O)/C=C/c3c[nH]cn3)c2)cc1', 'NOT MET'),
  ('O=C(/C=C/c1cccnc1)c1cccc(NCc2csc3ccccc23)c1', 'MET'),
  ('COc1ccc(CNc2cccc(C(=O)/C=C/c3ccc(NC(C)=O)cc3)c2)cc1OC', 'MET'),
  ('CC(=O)Nc1ccc(/C=C/C(=O)c2cccc(NCc3ccc4oc(=O)ccc4c3)c2)cc1', 'NOT MET'),
  ('O=C(/C=C/c1c[nH]cn1)c1cccc(NCc2ccc(CO)cc2)c1', 'NOT MET'),
  ('COc1ccc(CNc2cccc(C(=O)/C=C/c3cccnc3)c2)cc1OC', 'NOT MET'),
  ('CC(=O)Nc1ccc(CNc2cccc(C(=O)/C=C/c3cccnc3)c2)cc1', 'MET'),
  ('O=C(/C=C/c1c[nH]cn1)c1cccc(NCc2ccc3oc(=O)ccc3c2)c1', 'MET'),
  ('CC(=O)Nc1ccc(/C=C/C(=O)c2cccc(NCc3csc4ccccc34)c2)cc1', 'MET'),
  ('O=C(/C=C/c1cccnc1)c1cccc(NCc2ccc(CO)cc2)c1', 'MET'),
  ('CC(=O)Nc1ccc(/C=C/C(=O)c2cccc(NCc3ccc(CO)cc3)c2)cc1', 'MET'),
  ('Cc1ccc(CNc2cccc(C(=O)/C=C/c3cccnc3)c2)cc1', 'NOT MET'),
  ('CC(=O)Nc1ccc(/C=C/C(=O)c2cccc(NCc3ccc(C)cc3)c2)cc1', 'NOT MET');
